target_entity: Cytochrome P450 2C9 (Homo sapiens)
measurement_description: Cytochrome panel assay with activity outcomes
condition_context: recombinant CYP, pro-luciferin dealkylation, luminescence, p450-cyp2c9; series mostly up to 57.1 µM
The campaign covered roughly 16,000 compounds. About 4,000 (25%) were called active. Not shown: some 26% with an inconclusive outcome. Calls follow the shape of the dose curve; as a rule, active = well fitted curve in the direction sought with a large enough effect; inconclusive = small, poorly fitted or top-dose-only effect, or effect the other way; inactive = no such curve, though single readings can be large or run the other way. A selection follows.
Could you please pick one outcome from this set? yes (1) for active, no (0) for inactive

Write down the call the test reported for this compound. Item: `CSc1ccccc1NC(=O)CSCc1ccc(C)cc1` yes (1)

Write down the call the test reported for this compound. Item: `CN1CCC(=NNC(=O)CSCc2ccccc2)CC1` no (0)

Write down the call the test reported for this compound. Item: `O=C(c1ccncc1)N1CCC2(CC1)CN(c1ncccn1)C2` no (0)

Write down the call the test reported for this compound. Item: `CN(C)c1ncc2nc(-c3ccc(F)cc3)c(=O)n(CCC#N)c2n1` no (0)

Write down the call the test reported for this compound. Item: `CN(C)CCn1nnnc1SCC1=C(C(=O)O)N2C(=O)[C@@H](NC(=O)Cc3csc(N)n3)[C@@H]2SC1` no (0)

Write down the call the test reported for this compound. Item: `N[C@]1(C(=O)O)CCc2cc(P(=O)(O)O)ccc21` no (0)

Write down the call the test reported for this compound. Item: `C=CC(C)(C)c1[nH]c2ccccc2c1C1=C(O)C(=O)C(c2c[nH]c3c(CC=C(C)C)cccc23)=C(O)C1=O` yes (1)

Write down the call the test reported for this compound. Item: `CN(C)CCN(Cc1cccs1)c1ccccn1` no (0)

Write down the call the test reported for this compound. Item: `CC(C)CN1CCCC2(CCN(C(=O)c3cnccn3)CC2)C1` no (0)
